- Target under test: STING protein (Homo sapiens (Human), UniProt Q86WV6, H232R)
- Sequence (Q86WV6 whole entry H232R): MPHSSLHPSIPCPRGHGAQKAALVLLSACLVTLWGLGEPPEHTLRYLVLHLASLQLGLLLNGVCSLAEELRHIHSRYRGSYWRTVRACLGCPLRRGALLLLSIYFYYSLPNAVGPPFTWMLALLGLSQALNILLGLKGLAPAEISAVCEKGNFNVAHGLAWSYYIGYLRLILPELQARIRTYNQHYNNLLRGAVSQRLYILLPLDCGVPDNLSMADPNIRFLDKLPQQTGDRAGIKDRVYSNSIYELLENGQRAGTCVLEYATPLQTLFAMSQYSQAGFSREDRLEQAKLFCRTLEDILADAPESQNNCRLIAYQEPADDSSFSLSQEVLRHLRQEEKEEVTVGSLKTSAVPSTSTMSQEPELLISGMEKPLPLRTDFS
- Method notes: Cell based reporter assay of IRF activation (IRF-luciferase), THP1-dual-KI R232
- Condition details: read-out: THP1-dual-KI R232_IRF(Luciferase)_Activity Maximum measured (%)
For each entry below, report its Emax value.

Below are worked cases with known answers.
>>> measurement("CC1(C)CC=C(c2ccc3c(=O)c4ccc(Cl)c(Cl)c4n(CC(=O)O)c3c2)CC1 [Compound 159]")
"5 to 25%"
>>> measurement("C[C@H](O)COc1c(Cl)ccc2c(=O)c3ccccc3n(CC(=O)O)c12 [Compound 302]")
"< 5%"
>>> measurement("O=C(O)Cn1c2cc(C3CCCC3)ccc2c(=O)c2ccc(Cl)c(Cl)c21 [Compound 113]")
"5 to 25%"
>>> measurement("Cc1ccc2c(=O)c3ccc(Cl)c(Br)c3n(CC(=O)O)c2c1 [Compound 112]")
"5 to 25%"
>>> measurement("COc1c(Cl)ccc2c(=O)c3ccc(-c4cccc(N)c4)cc3n(CC(=O)O)c12 [Compound 275]")
"> 50%"
>>> measurement("COc1c(Cl)ccc2c(=O)c3ccc(C4CCCNC4)cc3n(CC(=O)O)c12 (stereo not shown) [Compound 227]")
"< 5%"
>>> measurement("C[C@@H]1CCCN1c1ccc2c(=O)c3ccc(Cl)c(Br)c3n(CC(=O)O)c2c1 [Compound 203]")
"> 50%"
>>> measurement("CSc1c(Cl)ccc2c(=O)c3ccc(C(C)C)cc3n(CC(=O)O)c12 [Compound 281]")
"> 50%"
>>> measurement("COc1c(Cl)ccc2c(=O)c3ccc(NC4CCC4)cc3n(CC(=O)O)c12 [Compound 292]")
"> 50%"
>>> measurement("COc1c(Cl)ccc2c(=O)c3ccc(Nc4cccc(O)c4)cc3n(CC(=O)O)c12 [Compound 235]")
"< 5%"

Each of the following entries comes with a recorded value; kindly state Emax for each.
1. O=C(O)Cn1c2cc(-c3ccncc3)ccc2c(=O)c2ccc(Cl)c(Cl)c21 [Compound 189]
2. COc1c(Cl)ccc2c(=O)c3ccc(SC(C)C)cc3n(CC(=O)O)c12 [Compound 232]
3. COc1c(Cl)ccc2c(=O)c3ccc(SC4CCCCC4)cc3n(CC(=O)O)c12 [Compound 233]
4. CCOc1c(Cl)ccc2c(=O)c3ccc(C)cc3n(CC(=O)O)c12 [Compound 282]
5. Cc1ccc2c(=O)c3ccc(Cl)c(Cl)c3n(CC(=O)O)c2c1C [Compound 134]
6. COc1ccc2c(=O)c3ccccc3n(CC(=O)O)c2c1OC [Compound 265]

A.
["5 to 25%", "> 50%", "> 50%", "> 50%", "< 5%", "< 5%"]

Dear colleague, could you please provide Emax for the compounds listed below?
1. Cc1ccc2c(=O)c3ccc(Cl)c(-c4ccccc4)c3n(CC(=O)O)c2c1 [Compound 326]
2. COc1c(Cl)ccc2c(=O)c3ccc(NC4CCCC4)cc3n(CC(=O)O)c12 [Compound 293]
3. CCN(C)c1c(Cl)ccc2c(=O)c3ccc(C)cc3n(CC(=O)O)c12 [Compound 307]
4. COc1c(Cl)ccc2c(=O)c3ccc(-c4cccc(C)c4)cc3n(CC(=O)O)c12 [Compound 238]
5. COc1c(Cl)ccc2c(=O)c3ccc(-c4cccc(O)c4)cc3n(CC(=O)O)c12 [Compound 270]
6. CSc1c(Cl)ccc2c(=O)c3ccc(-c4ccc(O)cc4)cc3n(CC(=O)O)c12 [Compound 271]

A.
> 50%
> 50%
> 50%
> 50%
> 50%
> 50%
